# credit: ChEMBL document CHEMBL4513160

Tested on: Pseudomonas aeruginosa
METHOD DESCRIPTION: Antibacterial activity against Pseudomonas aeruginosa PAO397 [PAO1 d(mexAB-oprM) d(mexCD-oprJ) d(mexEF-oprN) d(mexJKL) d(mexXY) d(opmH)] (CO-ADD:GN_211); MIC in CAMBH media using NBS plates, by OD(600)
Assay type: functional
STUDY CONDITIONS: Concentration 300 ug.mL-1, ASSAY_TEST Inhibition of Bacterial Growth, detection method Absorption (OD600), MEDIA CAMHB, plate type 384well, CORNING #3640, time 18 hr
The campaign covered roughly 18,000 compounds. Fewer than 10 showed an effect of 50% or more. Not all results are given here.
MEASURED QUANTITY: Inhibition (%)
Give bare numbers, in %.

A selection of reference data follows.
COCCn1ccnc1CN1CCN(C)C(CO)C1 (stereo not drawn)	-3.82
O=C(c1ccsc1)N1CCCN(c2cccnn2)CC1	0.34
O=C(c1ccc(Br)cn1)N1CCN(CCO)CC1	18.45
COc1ccc(-c2cncc(N)c2)cc1CO	-5.49
c1ccc2[nH]c(NCC3CCCO3)nc2c1 (stereo not drawn)	-27.33
COC(=O)CNC(=O)CSc1nc(C)cc(C)c1C#N	-8.27
CC(CC(=O)N1CC[C@H](O)C1)c1cccc(F)c1 (stereo partly drawn)	-15.14
c1cn(-c2cc(N3CCSCC3)ncn2)cn1	8.05

# return Inhibition for each item in the list
1. Cn1nc(C(=O)Nc2nc(CC(N)=O)cs2)ccc1=O
2. CCN(C)CCNC(=O)c1cc(C2CC2)[nH]n1
3. CC(=O)N1CCN(c2ccc(CN)cc2)CC1
4. CC(C)N(CCOc1ccccc1C#N)CC(N)=O

[12.8, -3.76, -1.93, -27.27]

# return Inhibition for each item in the list
1. CN(Cc1ccccc1)C(=O)NC1CCCCNC1=O (stereo not drawn)
2. CC(C)(C)C(=O)Nc1ccc(N2CCNC(=O)C2)cc1
3. N#Cc1ccc(OC2CCNC2)nc1 (stereo not drawn)
4. CC(CN)N(C)C(=O)c1ccccc1Br (stereo not drawn)

1. -2.06
2. 7.8
3. 1.63
4. 12.75

# return Inhibition for each item in the list
1. OCc1ccncc1NCC1CCOCC1
2. COCCNC(=O)CN1CCC2(CC1)OCCO2

1: 8.94; 2: 24.44

---

System: Pseudomonas aeruginosa
METHOD DESCRIPTION: Antibacterial activity against Pseudomonas aeruginosa PAO397 [PAO1 d(mexAB-oprM) d(mexCD-oprJ) d(mexEF-oprN) d(mexJKL) d(mexXY) d(opmH)] (CO-ADD:GN_211); MIC in CAMBH media using NBS plates, by OD(600)
Assay type: functional
STUDY CONDITIONS: Concentration 300 ug.mL-1, ASSAY_TEST Inhibition of Bacterial Growth, detection method Absorption (OD600), MEDIA CAMHB, plate type 384well, CORNING #3640, time 18 hr
Hit rate of the full screen: of about 18,000 compounds, fewer than 10 showed an effect of 50% or more. Not all results are given here.
MEASURED QUANTITY: Inhibition (%)
Numbers only, in %.

O=C(NCCCN1CCc2ccccc2C1)C1CC1	-1.62
NC(=O)CCC1CCNCC1	-8.79
CC(C)(C)c1noc(CN2CCSCC2)n1	-15.23
CC1(C)CN(CC(O)C(F)(F)F)CCO1 (centres undefined)	7.85

# return Inhibition for each item in the list
1. Cc1nn(C)c(C)c1CCC(=O)NC1CCCNC1=O (centres undefined)
2. COc1ccc(Br)c(S(=O)(=O)N(C)C)c1
3. CS(=O)(=O)CC1(CNc2cccc(C(F)(F)F)n2)CC1
4. NC1CCCN(c2noc(-c3ccccc3)n2)CC1 (centres undefined)
5. CC(CO)Sc1ccc(S(=O)(=O)C(F)F)cc1 (centres undefined)
6. OC(CNc1ncc(Cl)cc1F)CN1CCOCC1 (centres undefined)

1. 6.16
2. -20.8
3. -21.2
4. 0.95
5. 16.44
6. 11.06

# return Inhibition for each item in the list
1. CC(C)CC(NCCS(C)(=O)=O)c1ccccn1 (centres undefined)
2. CN1N=C(C(=O)Nc2ccc(Cl)cn2)CCC1=O
3. COc1ccc(CNc2ccncc2F)cc1C#N
4. O=C(CCc1ccccn1)NCCn1cccc1

1. 6.01
2. 8.23
3. -8.23
4. 9.1

---

Test system: Pseudomonas aeruginosa
METHOD DESCRIPTION: Antibacterial activity against Pseudomonas aeruginosa PAO397 [PAO1 d(mexAB-oprM) d(mexCD-oprJ) d(mexEF-oprN) d(mexJKL) d(mexXY) d(opmH)] (CO-ADD:GN_211); MIC in CAMBH media using NBS plates, by OD(600)
Type: functional
STUDY CONDITIONS: Concentration 300 ug.mL-1, ASSAY_TEST Inhibition of Bacterial Growth, detection method Absorption (OD600), MEDIA CAMHB, plate type 384well, CORNING #3640, time 18 hr
Out of some 18,000 compounds screened, fewer than 10 showed an effect of 50% or more. A selection follows.
API: label(entry) gives 1 (yes) if the entry's Inhibition is strictly smaller than 10%; on equality or larger values it gives 0 (no).

Please review the following examples before continuing.
Nc1ncccc1CN1CCc2ccccc2CC1	1 (yes)
CCOc1cc(C(=O)NC2=NCCS2)ccc1OC	0 (no)
Nc1ccc(CN2CCN(CC(F)(F)F)CC2)cn1	1 (yes)
CO[C@H]1CNCC1NC(=O)Cc1ccc(F)cc1F (some centres not stated)	0 (no)
COCCNC(=O)NCCc1ccc(C)c(OC)c1	1 (yes)

Lab note: confirm whether the reported Inhibition for this molecule is below 10%, equality not counting. molecule: CN(C)C(CNC1=NCCN1)c1ccsc1 (configuration not stated) 1 (yes)

And what about the molecule CC(C)(C(=O)N1CC[S+]([O-])C(C)(C)C1)c1ccccc1 (configuration not stated) ? 0 (no)

---

Please respond with reported Inhibition for every item in the list.
Test system: Pseudomonas aeruginosa
METHOD DESCRIPTION: Antibacterial activity against Pseudomonas aeruginosa PAO397 [PAO1 d(mexAB-oprM) d(mexCD-oprJ) d(mexEF-oprN) d(mexJKL) d(mexXY) d(opmH)] (CO-ADD:GN_211); MIC in CAMBH media using NBS plates, by OD(600)
Type: functional
STUDY CONDITIONS: Concentration 300 ug.mL-1, ASSAY_TEST Inhibition of Bacterial Growth, detection method Absorption (OD600), MEDIA CAMHB, plate type 384well, CORNING #3640, time 18 hr
Hit rate of the full screen: of about 18,000 compounds, fewer than 10 showed an effect of 50% or more. A selection follows.
One number for each entry, in %.

CNc1nnc(SCc2csc(NC(C)=O)n2)s1	-5.82
CCN(Cc1[nH]cnc1C)C1CCS(=O)(=O)C1 (centres undefined)	6.36
COc1ccc(CNC(=O)C2=COCCO2)cc1OC	2.02
NC1CCN(S(=O)(=O)C2CC2)CC1	17.98

# return Inhibition for each item in the list
1. NC(=O)NCC1CCN(Cc2ccccc2)C1 (centres undefined)
2. COc1ccc(C)c(NC(=O)N(C)CCN(C)C)c1
3. O=C(Cn1cc(Br)cn1)NC1CCc2nccn2C1 (centres undefined)
4. COc1ccc(CC(C)=O)cn1
5. COc1ccccc1OCC(C)N (centres undefined)
6. O=C1CCC(=O)N1CCSc1ccc2ccccc2n1

1. -16
2. -15.47
3. -4.73
4. 4.82
5. 15.24
6. -6.71

# return Inhibition for each item in the list
1. NS(=O)(=O)CC1CCCN1CCSc1ccccc1 (centres undefined)
2. O=C(c1cccc(-n2cccn2)n1)N1CCCC1
3. CN(C)C1(CNC(=O)c2cn[nH]c2)CCOCC1
4. Cc1cc(N(C)C)nc(N2CCCC2C(=O)N(C)C)n1 (centres undefined)

1: -5.99; 2: 17.03; 3: -13.75; 4: -8.5

---

Tested on: Pseudomonas aeruginosa
METHOD DESCRIPTION: Antibacterial activity against Pseudomonas aeruginosa PAO397 [PAO1 d(mexAB-oprM) d(mexCD-oprJ) d(mexEF-oprN) d(mexJKL) d(mexXY) d(opmH)] (CO-ADD:GN_211); MIC in CAMBH media using NBS plates, by OD(600)
Assay type: functional
STUDY CONDITIONS: Concentration 300 ug.mL-1, ASSAY_TEST Inhibition of Bacterial Growth, detection method Absorption (OD600), MEDIA CAMHB, plate type 384well, CORNING #3640, time 18 hr
Hit rate of the full screen: of about 18,000 compounds, fewer than 10 showed an effect of 50% or more. Not all results are given here.
Please respond with reported Inhibition for every item in the list.
Numbers only, in %.

A selection of reference data follows.
CNc1ccc(N2CCOCC2)nc1	-26.42
CC(=O)NC(CC(=O)N1CCCC1)c1ccc(Cl)cc1 (stereo not drawn)	-24.39
CCn1cnnc1CNC(=O)c1cccc(N(C)C)c1	-1.56
Cc1c(NC(=O)c2cnccn2)cccc1C(N)=O	2.03
CC(C)n1nccc1NC(=O)CN(C)Cc1ccco1	9.78
NCc1nc2c(s1)CCCC2	-13.62

# return Inhibition for each item in the list
1. COc1ccc(C(N)c2ccncc2)cc1 (stereo not drawn)
2. Cc1cc(C)n(-c2ccc(C(=O)NC(C)(C)C)cn2)n1
3. Cc1ccccc1OCCN1CCC(C(N)=O)CC1
4. Cn1nc(C(=O)NCc2cc(Cl)ccn2)ccc1=O
5. Cn1ccnc1SCCNCC1(O)CNCCOC1 (stereo not drawn)
6. N#CCSCC(=O)NCc1ccccc1F
7. O=C(CCCc1nccs1)NCC(=O)N1CCCCC1

-28.12
9.83
0.98
-9.69
1.72
-29.21
-6.34
